Assign normalised response to each entry below.
# System: MCF-10A
# EXPERIMENTAL_DETAILS: normalised response (% of control), CellTiter-Glo; higher = more viable cells (100 = DMSO, 0 = benzethonium chloride kill control)
# MEASUREMENT_CONTEXT: incubation time: 72 h
The figure you give is taken to be in %; do not add the unit.

**Query** Note normalised response for the compound shown: CC(=O)[C@]1(O)Cc2c(O)c3c(c(O)c2[C@@H](O[C@H]2C[C@H](N)[C@H](O)[C@H](C)O2)C1)C(=O)c1ccccc1C3=O [Idarubicin] (0.1 nM)
**Result** 103

**Query** Note normalised response for the compound shown: CC(C)C[C@H](NC(=O)[C@@H](COC(C)(C)C)NC(=O)[C@H](Cc1ccc(O)cc1)NC(=O)[C@H](CO)NC(=O)[C@H](Cc1c[nH]c2ccccc12)NC(=O)[C@H](Cc1cnc[nH]1)NC(=O)[C@@H]1CCC(=O)N1)C(=O)N[C@@H](CCCNC(=N)N)C(=O)N1CCC[C@H]1C(=O)NNC(N)=O [Goserelin] (1000 nM)
**Result** 96.5

**Query** Note normalised response for the compound shown: CC1(C)CCC(c2ccc(Cl)cc2)=C(CN2CCN(c3ccc(C(=O)NS(=O)(=O)c4ccc(N[C@H](CCN5CCOCC5)CSc5ccccc5)c(S(=O)(=O)C(F)(F)F)c4)cc3)CC2)C1 [Navitoclax] (1 nM)
**Result** 93.5

**Query** Note normalised response for the compound shown: CC(C)(C)c1nc(-c2cccc(NS(=O)(=O)c3c(F)cccc3F)c2F)c(-c2ccnc(N)n2)s1 [Dabrafenib] (2.5 nM)
**Result** 112

**Query** Note normalised response for the compound shown: CN[C@@H](C)C(=O)N[C@H]1CN(C(=O)CC(C)C)CC[C@H]2CC[C@@H](C(=O)NC(c3ccccc3)c3ccccc3)N2C1=O [AT-406] (1000 nM)
**Result** 107

**Query** Note normalised response for the compound shown: Cc1cc(Nc2nc(N[C@@H](C)c3ncc(F)cn3)ncc2Cl)[nH]n1 [AZD1480] (0.1 nM)
**Result** 102

**Query** Note normalised response for the compound shown: CC(O)(CS(=O)(=O)c1ccc(F)cc1)C(=O)Nc1ccc(C#N)c(C(F)(F)F)c1 (stereo unspecified) [Bicalutamide] (1 nM)
**Result** 107

**Query** Note normalised response for the compound shown: CC1(COc2ccc3c(c2)ncn3-c2ccc3cccc(N4CCC(N)CC4)c3n2)COC1 [Crenolanib] (10 nM)
**Result** 106

**Query** Note normalised response for the compound shown: Cc1cc(Nc2nc(N[C@@H](C)c3ncc(F)cn3)ncc2Cl)[nH]n1 [AZD1480] (1 nM)
**Result** 97.1

**Query** Note normalised response for the compound shown: Cc1nc(C(=O)NCC(=O)O)c(O)c2ccc(Oc3ccccc3)cc12 [FG-4592] (10 nM)
**Result** 111

**Query** Note normalised response for the compound shown: C=CCn1c(=O)c2cnc(Nc3ccc(N4CCN(C)CC4)cc3)nc2n1-c1cccc(C(C)(C)O)n1 [MK1775] (10 nM)
**Result** 83

---

# Test system: MDA-MB-231
# EXPERIMENTAL_DETAILS: normalised response (% of control), CellTiter-Glo; higher = more viable cells (100 = DMSO, 0 = benzethonium chloride kill control)
# MEASUREMENT_CONTEXT: incubation time: 72 h
EXPERIMENTAL_ENDPOINT: normalised response (%)
The figure you give is taken to be in %; do not add the unit.

**Query** Note normalised response for the compound shown: CC(C)C[C@H](NC(=O)[C@@H](COC(C)(C)C)NC(=O)[C@H](Cc1ccc(O)cc1)NC(=O)[C@H](CO)NC(=O)[C@H](Cc1c[nH]c2ccccc12)NC(=O)[C@H](Cc1cnc[nH]1)NC(=O)[C@@H]1CCC(=O)N1)C(=O)N[C@@H](CCCNC(=N)N)C(=O)N1CCC[C@H]1C(=O)NNC(N)=O [Goserelin] (1000 nM)
**Result** 100

**Query** Note normalised response for the compound shown: Cc1cn(-c2cc(NC(=O)c3ccc(C)c(Nc4nccc(-c5cccnc5)n4)c3)cc(C(F)(F)F)c2)cn1 [Nilotinib] (1000 nM)
**Result** 96.5

**Query** Note normalised response for the compound shown: O=C(CCCCCCC(=O)Nc1ccccc1)NO [Vorinostat] (10 nM)
**Result** 98.2

**Query** Note normalised response for the compound shown: CC[C@H](CO)Nc1nc(NCc2ccccc2)c2ncn(C(C)C)c2n1 [Seliciclib] (10 nM)
**Result** 104

**Query** Note normalised response for the compound shown: CC(C)(C)NC(=O)[C@H]1CC[C@H]2[C@@H]3CC[C@H]4NC(=O)C=C[C@]4(C)[C@H]3CC[C@]12C [Finasteride] (10 nM)
**Result** 104

**Query** Note normalised response for the compound shown: CC(C)(C)c1nc(-c2cccc(NS(=O)(=O)c3c(F)cccc3F)c2F)c(-c2ccnc(N)n2)s1 [Dabrafenib] (250 nM)
**Result** 106

**Query** Note normalised response for the compound shown: Cc1cc(Nc2nc(N[C@@H](C)c3ncc(F)cn3)ncc2Cl)[nH]n1 [AZD1480] (1 nM)
**Result** 99.7

**Query** Note normalised response for the compound shown: COc1cc(Nc2c(C#N)cnc3cc(OCCCN4CCN(C)CC4)c(OC)cc23)c(Cl)cc1Cl [Bosutinib] (1000 nM)
**Result** 81.6

**Query** Note normalised response for the compound shown: C=CCN(/C=C1/C(=O)O[C@H](COC)[C@@]2(C)C1=C(O)C(=O)C1=C2[C@H](OC(C)=O)C[C@]2(C)C(=O)CC[C@@H]12)CC=C [Sonolisib] (10 nM)
**Result** 102

**Query** Note normalised response for the compound shown: Cn1cc(C2=C(c3cn(C4CCN(Cc5ccccn5)CC4)c4ccccc34)C(=O)NC2=O)c2ccccc21 [Enzastaurin] (1000 nM)
**Result** 100

**Query** Note normalised response for the compound shown: CC1(C)CCC(c2ccc(Cl)cc2)=C(CN2CCN(c3ccc(C(=O)NS(=O)(=O)c4ccc(N[C@H](CCN5CCOCC5)CSc5ccccc5)c(S(=O)(=O)C(F)(F)F)c4)cc3)CC2)C1 [Navitoclax] (1 nM)
**Result** 99.2

**Query** Note normalised response for the compound shown: CN(Cc1cnc2nc(N)nc(N)c2n1)c1ccc(C(=O)N[C@@H](CCC(=O)O)C(=O)O)cc1 [Methotrexate] (5 nM)
**Result** 109

**Query** Note normalised response for the compound shown: CC(C)(C)c1nc(-c2cccc(NS(=O)(=O)c3c(F)cccc3F)c2F)c(-c2ccnc(N)n2)s1 [Dabrafenib] (2.5 nM)
**Result** 102

**Query** Note normalised response for the compound shown: O=C(CCCCCCC(=O)Nc1ccccc1)NO [Vorinostat] (1 nM)
**Result** 94.8

**Query** Note normalised response for the compound shown: CCN(CC)CCCC(C)Nc1ccnc2cc(Cl)ccc12 (stereo not given) [Chloroquine] (100 nM)
**Result** 96.7
